Values compiled from the supplement of paper PMC11451515.

Tested on: SEM cells
Assay Summary: cell viability relative to DMSO control; higher = less cytotoxic
Reported Conditions: RPMI 5 mM glucose + 10% dialyzed FBS; 48 h; 46.1 µM
API: label(entry) gives 1 (yes) if the entry's cell viability is strictly smaller than 50%; on equality or larger values it gives 0 (no).

Observe how each entry below is paired with its result.
{"Molecule": "CC1=CC(=CC(=C1C\\C2=N\\CCN2)C)C(C)(C)C", "System Name": "SEM cells", "Answer Label": "0 (no)"}
{"Molecule": "Cc1ccccc1C(=O)Nc1ccc(C(=O)N2CCCC(O)c3cc(Cl)ccc32)c(C)c1 (centres undefined)", "System Name": "SEM cells", "Answer Label": "0 (no)"}
{"Molecule": "OCC(O)C(O)C(O)CO (centres undefined)", "System Name": "SEM cells", "Answer Label": "0 (no)"}

### Prompt Consider the molecule CC(N[C@H]1CCCC[C@@H]1NC(=O)c1ccc(Cl)cc1)c1cccc2ccccc12 (some centres undefined) . Is its cell viability strictly less than 50%?
### Response 0 (no)

### Prompt Consider the molecule NC[C@H]1O[C@H](O[C@@H]2[C@H](O)[C@@H](O[C@H]3O[C@H](CO)[C@@H](O)[C@H](N)[C@H]3O)[C@H](N)C[C@@H]2N)[C@H](O)[C@@H](O)[C@@H]1O . Is its cell viability strictly less than 50%?
### Response 0 (no)

### Prompt Consider the molecule CCCCCNC(=O)N1CCC(CN(Cc2ccc(Cl)cc2)Cc2ccc([N+](=O)[O-])s2)C1 (centres undefined) . Is its cell viability strictly less than 50%?
### Response 1 (yes)

### Prompt Consider the molecule CNc1nc(Nc2cnn([C@H]3CCN(C4COC4)C[C@@H]3F)c2Cl)ncc1C(F)(F)F . Is its cell viability strictly less than 50%?
### Response 1 (yes)

### Prompt Consider the molecule CNC(=O)c1ccc(Nc2cc(Nc3ccccc3[S+](=O)([O-])C(C)C)c3cc[nH]c3n2)nc1 . Is its cell viability strictly less than 50%?
### Response 1 (yes)

### Prompt Consider the molecule COc1cccc2c1C(=O)c1c(O)c3c(c(O)c1C2=O)C[C@@](O)(C(=O)CO)C[C@@H]3O[C@H]1C[C@H](N)[C@H](O)[C@H](C)O1 . Is its cell viability strictly less than 50%?
### Response 1 (yes)

----------
Below, each entry is listed alongside its reported cell viability.
Test system: SEM cells
Assay Summary: cell viability relative to DMSO control; higher = less cytotoxic
Reported Conditions: RPMI 5 mM glucose + 10% FBS; 48 h; 1.71 µM
Unit % implied. Number only.

Below are worked cases with known answers.
{"Structure String": "OC1=CC=C(C=C1)\\C2=C(O)\\C(=O)C3=C(O2)C=C(O)C=C3O", "Reported Value": 128}
{"Structure String": "Nc1ncnc2c1c(-c1cccc(OCc3ccccc3)c1)cn2[C@H]1C[C@@H](CN2CCC2)C1", "Reported Value": 117}

Field: next molecule
### Prompt Which cell viability value is on record for COc1ccc(C(=O)c2c(C)n(CCN3CCOCC3)c3cc(I)ccc23)cc1 ?
### Response 111

----------
Test system: P12-Ichikawa
Assay Summary: cell viability relative to DMSO control; higher = less cytotoxic
Reported Conditions: RPMI 5 mM glucose + 10% FBS; 48 h; 0.0632 µM
Readout Type: cell viability (%)
Unit % implied. Number only.

Below are worked cases with known answers.
{"Compound": "CN(C)CC(C)(C)CNc1nn2c(-c3ccccc3)nnc2cc1C1CCC1", "Reported Value": 109}
{"Compound": "CNC(=O)c1ccc(Nc2cc(Nc3ccccc3[S+](=O)([O-])C(C)C)c3cc[nH]c3n2)nc1", "Reported Value": 105}
{"Compound": "CCCCOCCOc1nc(-c2ccc(C(=O)O)c(F)c2)sc1C", "Reported Value": 120}
{"Compound": "CC(C)OC(=O)[C@H](C)N[P@](=O)(OC[C@H]1O[C@@H](N2\\C=C/C(=O)NC2=O)[C@](C)(F)[C@@H]1O)OC3=CC=CC=C3", "Reported Value": 112}
{"Compound": "COc1c(C)c2c(c(O)c1C/C=C(\\C)CCC(=O)O)C(=O)OC2", "Reported Value": 112}

Field: next compound
### Prompt Which cell viability value is on record for CCCCN(CCCC)CC(O)c1cc(Cl)cc2c1-c1ccc(Cl)cc1/C2=C/c1ccc(Cl)cc1 (stereo not drawn) ?
### Response 102
